# method.description: yeast display, Sf9 membrane polyspecificity reagent, FACS + sequencing; frameworks hold sequencing errors
readout.label: polyreactivity (PSR sort gate)

residue.codes | readout.label | result
QVQHVDSGGGLVQEGGSLRLSCAASGRIFTYNAMGWYRQAPGKERELVAAISRRGGTTYYADSVKGRFTISRDNAKNTVYLQMNSLKPEDTAVYYCAAVVYTRGVTSRPVSRYDYWGQGTQVTVSS | polyreactivity (PSR sort gate) | high polyreactivity
QVQLVESGGGLVQAGGSLRLSCAASGSIFSGYVMGWYRQAPGKERELVAAINSRAGRTYYADSVKGRFTISRDNAKNTVYLQMNSLKPEDTAVYYCNAPTSFHRGGGYWGQGTQVTVSS | polyreactivity (PSR sort gate) | high polyreactivity

---

# method.description: yeast display, Sf9 membrane polyspecificity reagent, FACS + sequencing; frameworks hold sequencing errors
readout.label: polyreactivity (PSR sort gate)

residue.codes | readout.label | result
QVQLVESGGGLVQAGGSLRLSWAASGRILSANAMGWYRQAPGKERELVAAITYSGDNTYYADSVKGRFTISRDNAKNTVDVQMNSLKPEDTAVYYCAAVRYYAYLSSWRYDYWGQGTQVTVSS | polyreactivity (PSR sort gate) | low polyreactivity
QVQLVESGGGLVQAGGSLRLSCAASGFTFTAYAMGWYRQAPGKERELVAAINWSGSRTYYADSVKGRFTISRDNAKNTVYLQMNSLKPEDTAVYYCNTATSKSSYRHYDYWGQGTQVTVSS | polyreactivity (PSR sort gate) | high polyreactivity
QVQLVESGGGLVQAGGSLRLSCADSGITFSRYAMGWYRQAPGKERELVAAITRRGGNTYYADSVKGRFTISRDIAKNTVYLQMNSLKPVDTAVYYCASGYTYYGGDYWGQGTQVTVSS | polyreactivity (PSR sort gate) | high polyreactivity
QVQLVESGGGLVQAGGSLRLSCAASGLIFSTYAMGWYRQAPGKERELVASISSSGGSTYYADSVKGRFTISRDNAKNTVYLQMNSLKPEDTAVYYCAAVTKRYQPTYYITYGYWGQGTQVTVSS | polyreactivity (PSR sort gate) | high polyreactivity
QVQLVESGGGLVQAGGSLRLSCAASGRIFIVYAMGWYRQAPGKERELVATISWSGGSTYYADSVKGRFTISRDNAKNTVYLQMTSLKPEDTAVYYCAADYRWVDSDSSLFYWYDYWGQGTQVTVSS | polyreactivity (PSR sort gate) | high polyreactivity
QVQLVESGGGLVQAGGSLRLSCAASGSTFGSNAMGWYRQAPGKEREWVAAISWTGGSTYYADSVKGRFTISRDKAKNPVYVHMNSLKPEETAVYYCNDYGYGYPLYRYDYWGQGTQVTVSS | polyreactivity (PSR sort gate) | low polyreactivity
QVQLVESGGGLVQAGGSLRLSCAASGSIFRYYAMGWYRQAPGKERELVAAISSGTITNYADSVKGRFTISRDNAKNTVYLQMNSLKPEDTAVYYCAADTWYLGYPDYWLDYWGQGTQVTVSS | polyreactivity (PSR sort gate) | low polyreactivity
QVQLVESGGGLVQAGGSLRLSCAASGSTLRRYAMGWYRQAPGKERELVAAISGSGDSTYYADSVKGRFTISRDIAKNTVYLQMNSLKPEDTAVYYCNAVYAFNGYDYWGQGTQVTVSS | polyreactivity (PSR sort gate) | low polyreactivity
QVQLVESGGGLVQAGGSLRLSCAASGSIFTYNAMGWYRQAPGKERELVAAITGDDITNYADSVKGRFTISRDNAKNTVYLQMNSLKPEYTAVYYCARDQWVFGSSPVQAGEYWGQGTQVTVSS | polyreactivity (PSR sort gate) | low polyreactivity
QVQLVESGGGLVQAGGSLRLSCAASGRIFTYYAMGWYRQAPGKERELVAAITWSGTGTYYADSVKGRFTISRDNAKNTVYLQMNSLKPEDTAVYYCNRRHALASSYYYWGQGTQVTVSS | polyreactivity (PSR sort gate) | low polyreactivity
QVQLVESGGGLVQAGGSLRLSCAASGSTFFIYAMGWYRQAPGKERELVAAISKSGGTTYYADSVKGRFTISRDNAKNTVYLQMNSLKPEDTAVYYCAAYYTKGVARRQFYYWGQGTQVTVSS | polyreactivity (PSR sort gate) | high polyreactivity
